Data origin: PubChem BioAssay (NCI)

Some compounds, each annotated with its measured TGI.
# Test system: MCF7 breast
# protocol text: NCI tumour cell line growth inhibition, 48 h
Where a SMILES comes first, the peptide text is derived from it. [ ]: non-standard residue; d: D form. The star is where a group is joined. Iva = CC[C](C)(N)C(=O)O; Boc = CC(C)(C)OC(=O)*; X52 = C1CCC(=NO*)C1

compound	TGI
CC[C@H](Nc1c(O)c2c(c(O)c1Cl)C(=O)C=CC2=O)C(=O)OC	> 10 µM
CCC(C)(NC(=O)C(C)NC(=O)OC(C)(C)C)C(=O)NC(C)C(=O)NC(C)(CC)C(=O)ON=C1CCCC1 (centres undefined) (Boc-A[Iva]A[Iva]-X52; configuration not given here)	> 100 µM
CN=c1c2c(c3[nH]c4ccccc4c4cnc1c34)NCCC2=O	> 10 µM
Nc1nc(Cl)c(/C=N\O)c(NCC2(CO)CCC2)n1	> 100 µM
